Form field: kon (one value per entry).
biological target: T1, recombinant human Fc-PD-1 protein (human, UniProt Q15116 25-170); test: Biacore, Fab, human Fc-PD-1
T1 construct: may be the same protein as the PD-1 Fc fusion of the Luminex assays; also called recombinant human PD-1 in an Fc fusion construct; not shown: Fc part not described
T1 sequence (Q15116 25-170): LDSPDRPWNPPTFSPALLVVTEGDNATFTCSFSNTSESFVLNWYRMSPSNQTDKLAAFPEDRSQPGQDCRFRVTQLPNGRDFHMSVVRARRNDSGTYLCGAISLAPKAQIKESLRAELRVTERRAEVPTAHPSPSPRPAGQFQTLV
Hi! Could you send only the number? It should be in M⁻¹ s⁻¹, unit omitted.

Check out these entries, answers already filled in.
>>> measured_value("A36443 (Fab, V domains shown, humanized Fab clone of 135C12; also called humanized antibody A36443) VH: EVQLVQSGAEVKKPGATVKISCKVSGYTFTNFYIHWVRQARGQRLEWIGSIYPNYGDTAYNQKFKDRVTITADKSTSTAYMELSSLRSEDTAVYYCARGYSYAMDYWGQGTTVTVSS VL: DIQMTQSPSSVSASVGDRVTITCSASQGISGDLNWYQQKPGQAPRLLIYHTSSLHSGVPSRFSGSGSGTEFTLTISRLEPEDFAVYYCQYYSKDLLTFGGGTKLEIK")
71200
>>> measured_value("A35789 (Fab, V domains shown, humanized Fab clone of 135C12; also called humanized antibody A35789) VH: EVQLVQSGAEVKKPGESLKISCKGSGYSFTNFYIHWVRQMPGKGLEWMGSIYPNYGDTAYNQKFKDRVTITADKSTSTAYMELSSLRSEDTAVYYCARGYSYAMDYWGQGTTVTVSS VL: DIQMTQSPSSVSASVGDRVTITCSASQGISGDLNWYQQKPGQAPRLLIYHTSSLHSGIPARFSGSGSGTDFTLTISRLEPEDFAVYYCQYYSKDLLTFGGGTKLEIK")
70100
>>> measured_value("A35777 (Fab, V domains shown, humanized Fab clone of 135C12; also called humanized antibody A35777) VH: EVQLVQSGAEVKKPGATVKISCKVSGYTFTNFYIHWVRQAPGKGLEWMGSIYPNYGDTAYNQKFKDRVTITADKSTSTAYMELSSLRSEDTAVYYCARGYSYAMDYWGQGTTVTVSS VL: DIQMTQSPSTLSASVGDRVTITCSASQGISGDLNWYQQKPGQAPRLLIYHTSSLHSGVPSRFSGSGSGTDFTLTISSLQPEDFATYYCQYYSKDLLTFGGGTKLEIK")
68600
>>> measured_value("A36448 (Fab, V domains shown, humanized Fab clone of 135C12; also called humanized antibody A36448) VH: EVQLVQSGAEVKKPGESLKISCKGSGYSFTNFYIHWVRQMPGKGLEWMGSIYPNYGDTAYNQKFKDRFVFSLDTSVSTAYLQISSLKAEDTAVYYCARGYSYAMDYWGQGTTVTVSS VL: DIQMTQSPSTLSASVGDRVTITCSASQGISGDLNWYQQKPGKTPKLLIYHTSSLHSGVPSRFSGSGSGTDFTLTISSLQPEDFATYYCQYYSKDLLTFGGGTKLEIK")
89600

From here, focus on the item given below.
The reported kon of the binder A36437 (Fab, V domains shown, humanized Fab clone of 135C12; also called humanized antibody A36437) VH: EVQLVQSGAEVKKPGESLKISCKGSGYSFTNFYIHWVRQMPGKGLEWMGSIYPNYGDTAYNQKFKDRFVFSLDTSVSTAYLQISSLKAEDTAVYYCARGYSYAMDYWGQGTTVTVSS VL: DIQMTQSPSTLSASVGDRVTITCSASQGISGDLNWYQQKPGQAPRLLIYHTSSLHSGIPARFSGSGSGTDFTLTISSLQPEDFAVYYCQYYSKDLLTFGGGTKLEIK was 71000

Values were extracted from patent US20220259315A1.
